B1: TMEM59 peptide (residues 268–280), wild type [modified: long spacer (Tds) at the N-terminal end, used for immobilisation; long spacer (Tds) at the N-terminal end, used for immobilisation] [not stated] / GST-HA-ATG16L1(231–607) … (parent)
chain 1: PLPVEQDDDIEVIVDETSDHTEETSPVRAISRAATKRLSQPAGGLLDSITNIFGRRSVSSFPVPQDNVDTHPGSGKEVRVPATALCVFDAHDGEVNAVQFSPGSRLLATGGMDRRVKLWEVFGEKCEFKGSLSGSNAGITSIEFDSAGSYLLAASNDFASRIWTVDDYRLRHTLTGHSGKVLSAKFLLDNARIVSGSHDRTLKLWDLRSKVCIKTVFAGSSCNDIVCTEQCVMSGHFDKKIRFWDIRSESIVREMELLGKITALDLNPERTELLSCSRDDLLKVIDLRTNAIKQTFSAPGFKCGSDWTRVVFSPDGSYVAAGSAEGSLYIWSVLTGKVEKVLSKQHSSSINAVAWSPSGSHVVSVDKGCKAVLWAQY
chain 2: YVPSEKLSIYGDL

Variants of: B1
test_description: peptide microarray
conditions: with GST-HA-ATG16L1(231–607) [human]; ligand 800, 600, 400 nM; parent: 100
percent of parent by entry:

{"columns": ["variant_description", "percent of parent [% WT]"],
 "data": [
  ["chain 2 L13P", 94],
  ["chain 2 K6F", 114],
  ["chain 2 L13E", 60],
  ["chain 2 S8F", 144],
  ["chain 2 S4D", 29],
  ["chain 2 Y10M", 3],
  ["chain 2 P3D", 107],
  ["chain 2 D12W", 177],
  ["chain 2 E5S", 135],
  ["chain 2 E5L", 51],
  ["chain 2 S8D", 9],
  ["chain 2 E5Y", 148],
  ["chain 2 S4E", 45],
  ["chain 2 Y10H", 3],
  ["chain 2 K6Y", 74],
  ["chain 2 D12V", 159],
  ["chain 2 K6H", 21],
  ["chain 2 L13M", 36],
  ["chain 2 G11N", 140],
  ["chain 2 Y10I", 21],
  ["chain 2 Y10T", 4],
  ["chain 2 P3F", 168],
  ["chain 2 K6W", 106],
  ["chain 2 L13V", 123],
  ["chain 2 D12H", 179],
  ["chain 2 Y10E", 2],
  ["chain 2 S8K", 144],
  ["chain 2 V2K", 96],
  ["chain 2 K6D", 6],
  ["chain 2 D12R", 164],
  ["chain 2 S4A", 73],
  ["chain 2 S8W", 179],
  ["chain 2 Y10R", 5],
  ["chain 2 S4V", 144],
  ["chain 2 S4F", 1],
  ["chain 2 S8A", 59],
  ["chain 2 L7M", 52],
  ["chain 2 Y10V", 9],
  ["chain 2 E5N", 183],
  ["chain 2 L7W", 112],
  ["chain 2 Y10G", 2],
  ["chain 2 S8Y", 137],
  ["chain 2 G11L", 17],
  ["chain 2 P3E", 86],
  ["chain 2 E5V", 52],
  ["chain 2 L13G", 54],
  ["chain 2 P3V", 176],
  ["chain 2 L7D", 12],
  ["chain 2 E5F", 29],
  ["chain 2 L13D", 27],
  ["chain 2 I9E", 96],
  ["chain 2 P3S", 138],
  ["chain 2 K6L", 51],
  ["chain 2 G11I", 1],
  ["chain 2 Y1K", 19],
  ["chain 2 V2R", 47],
  ["chain 2 V2S", 56],
  ["chain 2 I9P", 89],
  ["chain 2 P3N", 110],
  ["chain 2 L13S", 32],
  ["chain 2 G11M", 40],
  ["chain 2 S4P", 65],
  ["chain 2 Y1H", 28],
  ["chain 2 S4K", 180],
  ["chain 2 L13Y", 201],
  ["chain 2 L13Q", 37],
  ["chain 2 Y1T", 17],
  ["chain 2 L7E", 7],
  ["chain 2 V2Q", 15]
]}
